The measured values listed here are drawn from patent US9029409B2.

biological target: recombinant human MMP13 catalytic domain (CD) (Homo sapiens); construct: catalytic domain (CD) construct encompassing residues 20-274 (SWISS-PROT P45452); experiment: MMP-13 catalytic domain FRET enzyme assay; details: recombinant human MMP-13 catalytic domain
reported.endpoint: IC50

1. COc1cc(CNC(=O)c2cc(C3=NOC(C4CCN(C(=O)CN(C)C)CC4)C3)nc(C)n2)ccc1F (stereo not shown) ... 10 to 100 nM
2. COc1cc(CNC(=O)c2cc(C3=NOC(c4ccc(C(C)O)cn4)C3)nc(C)n2)ccc1F (stereo not shown) ... < 10 nM
3. CNC(=O)c1cccc(C2CC(c3cc(C(=O)NCc4ccc(F)c(OC)c4)nc(C)n3)=NO2)c1 (stereo not shown) ... 10 to 100 nM
4. COc1cc(CNC(=O)c2cc(C3=NOC([C@H]4CC[C@H](CNC(=O)CO)CC4)C3)nc(C)n2)ccc1F (stereo partly shown) ... < 10 nM

----------
target: recombinant human MMP13 catalytic domain (CD) (Homo sapiens); construct: catalytic domain (CD) construct encompassing residues 20-274 (SWISS-PROT P45452); assay: MMP-13 catalytic domain FRET enzyme assay; conditions: recombinant human MMP-13 catalytic domain
Overview of reported IC50 across a group of compounds:
reported.endpoint: IC50

1) CNC(=O)NC[C@@H]1CO[C@@H]([C@@H]2CC(c3cc(C(=O)NCc4ccc(F)c(OC)c4)nc(C)n3)=NO2)CO1 ... 10 to 100 nM
2) COc1cc(CNC(=O)c2cc(C3=NOC(c4c[nH]cn4)C3)nc(C)n2)ccc1F (stereo not shown) ... > 1000 nM
3) Cc1nc(C(=O)NCc2ccc3c(c2)NC(=O)CC3)cc(C2=NO[C@H]([C@H]3CO[C@H](CO)CO3)C2)n1 ... 10 to 100 nM
4) COc1cc(CNC(=O)c2cc(C3=NO[C@@H](c4ccn(C)c(=O)c4)C3)nc(C)n2)ccc1F ... 100 to 1000 nM

----------
Molecular target: recombinant human MMP13 catalytic domain (CD) (Homo sapiens)
Construct: catalytic domain (CD) construct encompassing residues 20-274 (SWISS-PROT P45452)
Experiment: MMP-13 catalytic domain FRET enzyme assay
Conditions: recombinant human MMP-13 catalytic domain
Description: A recombinant human MMP13 catalytic domain (CD) construct encompassing residues 20-274 (SWISS-PROT P45452) was generated by synthetic gene methods and bacterial expression. […] The assay is based on the cleavage of this substrate by MMP-13, resulting in decrease of FRET between the donor-acceptor pair and subsequent fluorescence enhancement. […] Fluorescence was measured on a Victor V5 plate reader (Perkin Elmer, Turku, Finland). […]
pIC50: −log10 of the molar value.
Overview of reported pIC50 across a group of compounds:
reported.endpoint: pIC50

1. CNC(=O)c1ccc(C2CC(c3cc(C(=O)NCc4ccc(F)c(OC)c4)nc(C)n3)=NO2)nc1 (stereo not drawn) ... 7.00 to 8.00
2. COc1cc(CNC(=O)c2cc(C3=NOC(C4CCN(C(=O)C5CC5)CC4)C3)nc(C)n2)ccc1F (stereo not drawn) [drawing 875] ... 7.00 to 8.00
3. COc1cc(CNC(=O)c2cc(C3=NO[C@@H](c4ccc(=O)n(C)c4)C3)nc(C)n2)ccc1F ... 6.00 to 7.00
4. COc1cc(CNC(=O)c2cc(C3=NO[C@H]([C@H]4CO[C@H](C(N)=O)CO4)C3)nc(C)n2)ccc1F ... > 8.00
5. COc1cc(CNC(=O)c2cc(C3=NOC(c4ccc(N(C)C)nn4)C3)nc(C)n2)ccc1F (stereo not drawn) ... < 6.00
6. COc1ccc(CNC(=O)c2cc(C3=NOC(c4ccccn4)C3)nc(C)n2)cc1 (stereo not drawn) ... 6.00 to 7.00
7. Cc1nc(C(=O)NCc2ccncc2)cc(C2=NO[C@H]([C@H]3CO[C@H](CO)CO3)C2)n1 ... 7.00 to 8.00
8. COc1cc(CNC(=O)c2cc(C3=NOC([C@H]4CC[C@H](NC(=O)N(C)CCO)CC4)C3)nc(C)n2)ccc1F (stereo partly drawn) ... > 8.00
9. COc1cc(CNC(=O)c2cc(C3=NOC(c4ccc(C#N)nc4)C3)nc(C)n2)ccc1F (stereo not drawn) ... > 8.00
10. COc1cc(CNC(=O)c2cc(C3=NOC(c4ccc(C#N)nn4)C3)nc(C)n2)ccc1F (stereo not drawn) ... > 8.00
11. COc1ccc(CNC(=O)c2cc(C3=NOC(C4CCCCC4)C3)nc(C)n2)cc1 (stereo not drawn) ... 7.00 to 8.00
12. COc1ccc(CNC(=O)c2cc(C3=NOC(c4ccccc4)C3)nc(C)n2)cc1 (stereo not drawn) ... 7.00 to 8.00
13. Cc1nc(C(=O)NCc2ccc(F)c(C)c2)cc(C2=NO[C@H]([C@H]3CO[C@H](CO)CO3)C2)n1 ... 6.00 to 7.00
14. COc1cccc(CNC(=O)c2cc(C3=NO[C@@H]([C@H]4CO[C@H](CO)CO4)C3)nc(C)n2)c1 ... < 6.00
15. COc1cc(CNC(=O)c2cc(C3=NO[C@@H](c4ccc(=O)n(C5CC5)c4)C3)nc(C)n2)ccc1F ... 7.00 to 8.00
16. Cc1nc(C(=O)NCc2ccc(F)c(C)c2)cc(C2=NOC(c3ccc(=O)n(C)c3)C2)n1 (stereo not drawn) [drawing 1015] ... > 8.00
17. COc1cc(CNC(=O)c2cc(C3=NOC([C@H]4CC[C@H](C(=O)NCCO)CC4)C3)nc(C)n2)ccc1F (stereo partly drawn) ... > 8.00
18. COc1ccc(CNC(=O)c2cc(C3=NOC(c4ccc(C(=O)O)cc4)C3)ccn2)cc1 (stereo not drawn) ... 7.00 to 8.00
19. COc1cccc(CNC(=O)c2cc(C3=NO[C@H]([C@H]4CO[C@H](CO)CO4)C3)nc(C)n2)c1 ... 7.00 to 8.00
20. Cc1nc(C(=O)NCc2ccc3c(c2)NC(=O)CO3)cc(C2=NO[C@@H]([C@H]3CO[C@H](CO)CO3)C2)n1 ... 7.00 to 8.00
21. COc1cc(CNC(=O)c2cc(C3=NOC(c4cc(Cl)c(=O)n(C5CC5)c4)C3)nc(C)n2)ccc1F (stereo not drawn) ... > 8.00
22. CC(=O)N1CCC(C2CC(c3cc(C(=O)NCc4ccc(F)c(C)c4)nc(C)n3)=NO2)CC1 (stereo not drawn) ... 7.00 to 8.00
23. COc1cc(CNC(=O)c2cc(C3=NOC(c4nn[nH]n4)C3)nc(C)n2)ccc1F (stereo not drawn) ... < 6.00
24. CC(=O)NC[C@@H]1CO[C@@H]([C@@H]2CC(c3cc(C(=O)NCc4ccc(F)c(Cl)c4)nc(C)n3)=NO2)CO1 ... > 8.00
25. COc1cc(CNC(=O)c2cc(C3=NO[C@H]([C@H]4CO[C@H](CNC(=O)CC#N)CO4)C3)nc(C)n2)ccc1F ... > 8.00
26. Cc1nc(C(=O)NCc2ccc(F)c(C)c2)cc(C2=NOC([C@H]3CC[C@H](NC(=O)[C@H](C)O)CC3)C2)n1 (stereo partly drawn) ... > 8.00
27. COc1ccc(CNC(=O)c2cc(C3=NOC(c4cccc(OCCO)c4)C3)nc(C)n2)cc1 (stereo not drawn) ... 7.00 to 8.00
28. COc1cc(CNC(=O)c2cc(C3=NOC(c4ccc(C(=O)NCCO)cc4)C3)nc(C)n2)ccc1F (stereo not drawn) ... 7.00 to 8.00
29. COc1cc(CNC(=O)c2cc(C3=NO[C@H]([C@H]4CO[C@H](C(C)(C)O)CO4)C3)nc(C)n2)ccc1F ... 7.00 to 8.00
30. Cc1nc(C(=O)NCc2ccc(F)c(F)c2)cc(C2=NOC(c3ccccn3)C2)n1 (stereo not drawn) ... 7.00 to 8.00
31. Cc1nc(C(=O)NCc2ccc(F)c(F)c2)cc(C2=NO[C@@H](c3ccc(=O)n(C)c3)C2)n1 ... 6.00 to 7.00
32. Cc1nc(C(=O)NCc2ccc(F)c(C)c2)cc(C2=NOC(c3ccccn3)C2)n1 (stereo not drawn) ... 7.00 to 8.00
33. COc1cc(CNC(=O)c2cc(C3=NOC(c4ccc(-c5cnco5)nc4)C3)nc(C)n2)ccc1F (stereo not drawn) ... > 8.00

----------
Target: recombinant human MMP13 catalytic domain (CD) (Homo sapiens, UniProt P45452)
Construct: catalytic domain (CD) construct encompassing residues 20-274 (SWISS-PROT P45452); made in house
Experiment: MMP-13 catalytic domain FRET enzyme assay
Format: biochemical
Conditions: recombinant human MMP-13 catalytic domain
Experimental: A recombinant human MMP13 catalytic domain (CD) construct encompassing residues 20-274 (SWISS-PROT P45452) was generated by synthetic gene methods and bacterial expression. […] The assay is based on the cleavage of this substrate by MMP-13, resulting in decrease of FRET between the donor-acceptor pair and subsequent fluorescence enhancement. […] Fluorescence was measured on a Victor V5 plate reader (Perkin Elmer, Turku, Finland). […]
Overview of reported IC50 across a group of compounds:
reported.endpoint: IC50

1. COc1cc(CNC(=O)c2cc(C3=NOC(CN4CCC(CO)C4)C3)nc(C)n2)ccc1F (stereo not drawn) ... > 1000 nM
2. COc1cc(CNC(=O)c2cc(C3=NOC(c4ccc(CN5CCS(=O)(=O)CC5)cc4)C3)nc(C)n2)ccc1F (stereo not drawn) ... < 10 nM
3. COc1cc(CNC(=O)c2cc(C3=NOC(c4cnc(S(C)(=O)=O)cn4)C3)nc(C)n2)ccc1F (stereo not drawn) ... 10 to 100 nM
4. COc1cc(CNC(=O)c2cc(C3=NOC(c4cccnc4)C3)nc(C)n2)ccc1F (stereo not drawn) ... < 10 nM
5. COc1cc(CNC(=O)c2cc(C3=NOC(CC4CCN(C(C)=O)CC4)C3)nc(C)n2)ccc1F (stereo not drawn) ... 10 to 100 nM
6. COc1cc(CNC(=O)c2cc(C3=NO[C@H](c4ccc(CO)cc4)C3)nc(C)n2)ccc1F ... > 1000 nM
7. COc1cc(CNC(=O)c2cc(C3=NOC(c4ccc(=O)n(CC(=O)NC5CC5)c4)C3)nc(C)n2)ccc1F (stereo not drawn) ... < 10 nM
8. COc1cc(CNC(=O)c2cc(C3=NOC(C4CCN(C(=O)C(C)(C)O)CC4)C3)nc(C)n2)ccc1F (stereo not drawn) ... 10 to 100 nM
9. COc1ccc(C2CC(c3cc(C(=O)NCc4ccc(F)c(OC)c4)nc(C)n3)=NO2)nn1 (stereo not drawn) ... 10 to 100 nM
